Settings: buffer; pH 7.4; 200.0 µM
Recorded measurements of solubility kinetic, one per entry

# compound, solubility kinetic
records = [
    ("COc1ccc(/C=N/NC(=O)c2cccnc2)c(C(=O)O)c1OC", "> 49.4 µg/mL"),
    ("Cn1cc(C=O)c2ccccc21", "> 23.9 µg/mL"),
    ("CCCSc1nc2sc3c(c2c(=O)n1CC)CC(C)(C)OC3", "< 0.4 µg/mL"),
    ("CC(C)(C)NC(=O)N1CCN(c2ncccc2C(F)(F)F)CC1", "> 49.6 µg/mL"),
    ("CC(Oc1ccc(Br)cc1)C(=O)NCCCN1CCCC1=O (stereo unspecified)", "> 55.4 µg/mL"),
]

Data request: Fill in: solubility kinetic of Cc1onc(-c2c(Cl)cccc2Cl)c1C(=O)c1ccc(F)cc1 is ___
Data returned: < 0.7 µg/mL
